Assay Summary: RP, Waters ACQUITY UPLC BEH C18, 150 × 2.1 mm, 1.7 µm, 40 °C, 0.4 mL/min, estimated dead time 0.83 min; A: water + 0.1% formic acid, pH 3; B: acetonitrile; gradient (min/%B) 0/2 1.5/8 3.5/14 6/16 8/25 9.2/98 10.5/2 12/2
Assay Setup: stereoisomer not certain
Each entry below lists one item and its recorded LC retention time value.
Numbers only; they are read as min.

Field: example entries. Status: answers known.
Molecule: COc1cc(-c2cc(=O)c3c(O)c(C4OC(CO)C(O)C(O)C4OC4OCC(OC(=O)C=Cc5cc(OC)c(O)c(OC)c5)C(O)C4O)c(O)cc3o2)ccc1O (stereo not given) [sinapoyl-isoscoparin 2''-O-arabinoside]
Meas Value: 9.65
--
Molecule: NC(N)=NCCCCNC(=O)C=Cc1ccc2c(c1)C(C(=O)NCCCCN=C(N)N)C(c1ccc(O)cc1)O2 (stereo not given)
Meas Value: 4.52
--
Molecule: CC1OC(OC2C(Oc3cc4oc(-c5ccc(O)cc5)cc(=O)c4c(O)c3C3OC(CO)C(O)C(O)C3O)OC(CO)C(O)C2O)C(O)C(O)C1O (stereo not given) [isovitexin 7-O-rhamnosylglucoside]
Meas Value: 4.81
--
Molecule: COc1cc(C=CC(=O)OCC2OC(OC3C(c4c(O)cc5oc(-c6ccc(O)cc6)cc(=O)c5c4O)OC(CO)C(O)C3O)C(O)C(O)C2O)ccc1O (stereo not given) [feruloyl-isovitexin 2''-O-glucoside]
Meas Value: 7.88
--
Molecule: O=c1cc(-c2ccc(O)cc2)oc2c(C3OCC(O)C(O)C3O)c(O)c(C3OC(CO)C(O)C(O)C3O)c(O)c12 (stereo not given) [apigenin 6-C-glucoside-8-C-arabinoside]
Meas Value: 4.93

Problem: Please look up its LC retention time: COc1cc(-c2cc(=O)c3c(O)c(C4OC(CO)C(O)C(O)C4OC4OCC(O)C(O)C4O)c(O)cc3o2)ccc1O (stereo not given) [isoscoparin 2''-O-arabinoside]
Result: 6.97

Problem: Need LC retention time, item COc1cc(C=CC(=O)OC2COC(OC3C(c4c(O)cc5oc(-c6ccc(O)cc6)cc(=O)c5c4O)OC(CO)C(O)C3O)C(O)C2O)cc(OC)c1O (stereo not given) [sinapoyl-isovitexin 2''-O-arabinoside]
Result: 9.32

Problem: Need LC retention time, item COc1cc(-c2cc(=O)c3c(O)cc(OC4OC(COC(=O)C=Cc5ccc(O)cc5)C(O)C(O)C4O)cc3o2)ccc1O (stereo not given) [chrysoeriol 7-O-[6''-coumaroyl]-glucoside]
Result: 10.6

Problem: Consider the molecule COc1cc(-c2cc(=O)c3c(O)c(C4OC(CO)C(O)C(O)C4O)c(OC4OC(COC(=O)C=Cc5cc(OC)c(O)c(OC)c5)C(O)C(O)C4O)cc3o2)ccc1O (stereo not given) [isoscoparin 7-O-[6''-sinapoyl]-glucoside] and give its measured LC retention time.
Result: 7.62

Problem: Fill blank: measured LC retention time of the molecule COc1cc(C=CC(=O)OCC2OC(Oc3cc(O)c4c(=O)cc(-c5cc(OC)c(O)c(OC)c5)oc4c3)C(O)C(O)C2O)cc(OC)c1O (stereo not given) [sinapoyl-tricin 7-O-glucoside] is ____.
Result: 4.56

* * *

Assay Summary: RP, Waters ACQUITY UPLC BEH C18, 150 × 2.1 mm, 1.7 µm, 40 °C, 0.4 mL/min, estimated dead time 0.83 min; A: water + 0.1% formic acid, pH 3; B: acetonitrile; gradient (min/%B) 0/2 1.5/8 3.5/14 6/16 8/25 9.2/98 10.5/2 12/2
Assay Setup: stereoisomer not certain
// label = TRUE if LC retention time is not less than 6 min, otherwise FALSE

Worked cases, answers included:
Compound: CC1OC(OC2C(Oc3cc4oc(-c5ccc(O)c(O)c5)cc(=O)c4c(O)c3C3OC(CO)C(O)C(O)C3O)OC(CO)C(O)C2O)C(O)C(O)C1O (stereo not drawn) [isoorientin 7-O-rhamnosylglucoside]
Label Class: FALSE

Compound: O=c1cc(-c2ccc(O)cc2)oc2cc(O)c(C3OC(CO)C(O)C(O)C3OC3OCC(O)C(O)C3O)c(O)c12 (stereo not drawn) [isovitexin 2''-O-arabinoside]
Label Class: FALSE

Compound: COc1cc(-c2cc(=O)c3c(O)cc(OC4OC(COC5OC(CO)C(O)C(O)C5O)C(O)C(O)C4O)cc3o2)ccc1O (stereo not drawn) [chrysoeriol 7-O-diglucoside]
Label Class: TRUE

Compound: O=c1cc(-c2ccc(O)cc2)oc2c(C3OC(CO)C(O)C(O)C3O)c(O)c(C3OC(CO)C(O)C(O)C3O)c(O)c12 (stereo not drawn) [isovitexin 8-C-glucoside]
Label Class: FALSE

Compound: COc1cc(C=CC(=O)OCC2OC(Oc3cc4oc(-c5ccc(O)c(O)c5)cc(=O)c4c(O)c3C3OC(CO)C(O)C(O)C3O)C(O)C(O)C2O)ccc1O (stereo not drawn) [isoorientin 7-O-[6''-feruloyl]-glucoside]
Label Class: TRUE

Compound: O=c1cc(-c2ccc(O)cc2)oc2cc(OC3OC(CO)C(O)C(O)C3O)c(C3OC(CO)C(O)C(O)C3O)c(O)c12 (stereo not drawn) [isovitexin 7-O-glucoside (saponarin)]
Label Class: FALSE

Problem: Confirm if LC retention time reported for the compound O=c1cc(-c2ccc(O)c(O)c2)oc2c(C3OC(CO)C(O)C(O)C3O)c(O)c(C3OCC(O)C(O)C3O)c(O)c12 (stereo not drawn) [luteolin 6-C-arabinoside 8-C-glucoside] is 6 min or above.
Result: FALSE

Problem: Check this compound for LC retention time at or above 6 min: COc1cc(C=CC(=O)NCCCCN=C(N)N)cc2c1OC(c1ccc(O)cc1)C2C(=O)NCCCCN=C(N)N (stereo not drawn)
Result: FALSE
